Each recorded value in this set is attributed to paper PMC6736360.

Test: Caco-2 trans-well apparent permeability assay
Format: in vitro ADME
Conditions: human; Caco-2, 5 µM, 120 minutes, pH 7.4
Kindly state Papp B→A at 120 min, 5 µM for each of the entries shown.
Answer with a number only, understood to be in ×10⁻⁶ cm/s.

Item: CCOc1ccc2cc(-c3nn(CC4CCN(C)CC4)c4ncnc(N)c34)ccc2n1 [BKI1369] | Papp B→A at 120 min, 5 µM: 32.7

Item: CCOc1ccc2cc(-c3nn(CC4CCN(C)CC4)c4ncnc(N)c34)ccc2c1 [BKI1294] | Papp B→A at 120 min, 5 µM: 22.6

Item: CCOc1ccc2cc(-c3nn(CC4CCNCC4)c4ncnc(N)c34)ccc2n1 [BKI1318] | Papp B→A at 120 min, 5 µM: 20.3

---

Assay: Mouse gastrointestinal tissue pharmacokinetics
Type: in vivo, mice
Settings: mouse, cecum/colon, oral, elacridar in Cecum/Colon; read-out: Tmax
observedProperty: Tmax (h)
Answer with a number only, understood to be in h.

Item: COc1cc2c(cc1OC)CN(CCc1ccc(NC(=O)c3cccc4c(=O)c5cccc(OC)c5[nH]c34)cc1)CC2 [elacridar, reference compound] | Tmax: 6

---

Experiment: Mouse gastrointestinal tissue pharmacokinetics
Format: in vivo, mice
Conditions: mouse, ileum, po, Ileum, with elacridar; read-out: Cmax w/ Elacridar
observedProperty: Cmax (µM)
Answer with a number only, understood to be in µM.

Item: CCOc1ccc2cc(-c3nn(CC4CCNCC4)c4ncnc(N)c34)ccc2n1 | Cmax: 177

---

Test: Mouse gastrointestinal tissue pharmacokinetics
Type: in vivo, mice
Conditions: mouse, duodenum, po, Duodenum, BKI 1318 alone; read-out: AUC0-12
observedProperty: AUC(0-t) (µM·h)
Answer with a number only, understood to be in µM·h.

Item: CCOc1ccc2cc(-c3nn(CC4CCNCC4)c4ncnc(N)c34)ccc2n1 | AUC(0-t): 235

---

Test: Mouse gastrointestinal tissue pharmacokinetics
Assay type: in vivo, mice
Settings: mouse, cecum/colon, po, Cecum/Colon, with elacridar; read-out: Tmax w/ Elacridar
observedProperty: Tmax (h)
Answer with a number only, understood to be in h.

Item: CCOc1ccc2cc(-c3nn(CC4CCNCC4)c4ncnc(N)c34)ccc2n1 [BKI1318] | Tmax: 7.3

---

Kindly state Cmax for each of the entries shown.
Assay: Mouse oral plasma pharmacokinetics with or without elacridar
Format: in vivo, mice
Conditions: mouse, plasma, po, mouse plasma, oral; 1369 60 mg/kg, 1318 50 mg/kg; 30 mg/kg elacridar 15 minutes before; read-out: Cmax w/ Elacridar
Answer with a number only, understood to be in nM.

Item: CCOc1ccc2cc(-c3nn(CC4CCNCC4)c4ncnc(N)c34)ccc2n1 | Cmax: 1800

Item: CCOc1ccc2cc(-c3nn(CC4CCN(C)CC4)c4ncnc(N)c34)ccc2n1 | Cmax: 4100

---

Test: Mouse gastrointestinal tissue pharmacokinetics
Assay type: in vivo, mice
Conditions: mouse, jejunum, po, Jejunum, BKI 1318 alone; read-out: AUC0-12
observedProperty: AUC(0-t) (µM·h)
Answer with a number only, understood to be in µM·h.

Item: CCOc1ccc2cc(-c3nn(CC4CCNCC4)c4ncnc(N)c34)ccc2n1 | AUC(0-t): 279

---

Target: P-gp (Homo sapiens)
Construct: endogenous in cells; host or cells: Caco-2 cells (clone C2BBe1, ATCC); assay run by Absorption Systems LP
Sequence (P08183 whole entry): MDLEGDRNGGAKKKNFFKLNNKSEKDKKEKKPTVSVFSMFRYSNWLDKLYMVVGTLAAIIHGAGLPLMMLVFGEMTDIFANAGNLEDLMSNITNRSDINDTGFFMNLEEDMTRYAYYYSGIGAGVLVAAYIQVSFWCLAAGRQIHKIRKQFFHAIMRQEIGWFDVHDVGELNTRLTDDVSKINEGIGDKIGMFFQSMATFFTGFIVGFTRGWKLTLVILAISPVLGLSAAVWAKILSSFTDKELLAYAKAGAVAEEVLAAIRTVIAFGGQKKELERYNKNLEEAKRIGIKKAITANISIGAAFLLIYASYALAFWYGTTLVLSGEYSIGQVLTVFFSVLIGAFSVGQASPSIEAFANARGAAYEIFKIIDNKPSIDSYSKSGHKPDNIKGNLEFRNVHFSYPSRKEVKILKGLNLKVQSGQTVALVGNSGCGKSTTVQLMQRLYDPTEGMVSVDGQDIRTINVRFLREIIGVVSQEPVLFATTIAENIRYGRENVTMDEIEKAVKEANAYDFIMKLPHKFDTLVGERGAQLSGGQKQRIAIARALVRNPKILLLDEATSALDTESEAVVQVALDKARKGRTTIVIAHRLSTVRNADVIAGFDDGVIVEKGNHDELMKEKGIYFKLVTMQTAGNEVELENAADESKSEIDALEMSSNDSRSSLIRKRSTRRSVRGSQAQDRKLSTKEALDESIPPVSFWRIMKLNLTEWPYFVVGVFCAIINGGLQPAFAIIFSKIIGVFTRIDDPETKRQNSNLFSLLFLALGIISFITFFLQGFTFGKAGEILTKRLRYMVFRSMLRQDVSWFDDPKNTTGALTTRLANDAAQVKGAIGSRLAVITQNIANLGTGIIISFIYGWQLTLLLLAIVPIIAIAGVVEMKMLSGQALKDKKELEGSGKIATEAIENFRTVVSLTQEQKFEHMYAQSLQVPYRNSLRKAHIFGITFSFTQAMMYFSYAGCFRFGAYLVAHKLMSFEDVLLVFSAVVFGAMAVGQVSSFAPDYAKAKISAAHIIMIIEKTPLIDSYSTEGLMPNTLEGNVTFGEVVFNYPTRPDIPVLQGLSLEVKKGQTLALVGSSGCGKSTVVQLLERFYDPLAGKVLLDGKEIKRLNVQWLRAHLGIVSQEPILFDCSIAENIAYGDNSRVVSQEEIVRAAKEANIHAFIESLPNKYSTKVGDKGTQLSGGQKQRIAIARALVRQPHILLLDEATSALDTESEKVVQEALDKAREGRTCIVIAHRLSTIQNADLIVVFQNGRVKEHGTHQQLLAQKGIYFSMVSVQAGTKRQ
Test: Caco-2 P-gp efflux assay +/- valspodar
Assay type: in vitro ADME
Conditions: Caco-2
observedProperty: P-gp Substrate Classification

| compound | result |
| --- | --- |
| CCOc1ccc2cc(-c3nn(CC4CCN(C)CC4)c4ncnc(N)c34)ccc2c1 | Negative |
| CCOc1ccc2cc(-c3nn(CC4CCNCC4)c4ncnc(N)c34)ccc2n1 | Positive |
| CCOc1ccc2cc(-c3nn(CC4CCN(C)CC4)c4ncnc(N)c34)ccc2n1 | Negative |
| C[C@H]1O[C@@H](O[C@H]2[C@@H](O)C[C@H](O[C@H]3[C@@H](O)C[C@H](O[C@H]4CC[C@@]5(C)[C@H](CC[C@@H]6[C@@H]5C[C@@H](O)[C@]5(C)[C@@H](C7=CC(=O)OC7)CC[C@]65O)C4)O[C@@H]3C)O[C@@H]2C)C[C@H](O)[C@@H]1O [digoxin, reference compound] | Positive |

---

Assay: Mouse gastrointestinal tissue pharmacokinetics
Assay type: in vivo, mice
Details: mouse, ileum, oral, elacridar in Ileum; read-out: AUC0-12
observedProperty: AUC(0-t)
The reply should consist of the numeric value with the unit placed after it.

Item: COc1cc2c(cc1OC)CN(CCc1ccc(NC(=O)c3cccc4c(=O)c5cccc(OC)c5[nH]c34)cc1)CC2 [elacridar, reference compound] | AUC(0-t): 170 µM·h

---

Assay: Mouse gastrointestinal tissue pharmacokinetics
Format: in vivo, mice
Conditions: mouse, jejunum, oral, elacridar in Jejunum; read-out: AUC0-12
observedProperty: AUC(0-t)
The reply should consist of the numeric value with the unit placed after it.

Item: COc1cc2c(cc1OC)CN(CCc1ccc(NC(=O)c3cccc4c(=O)c5cccc(OC)c5[nH]c34)cc1)CC2 [elacridar, reference compound] | AUC(0-t): 104 µM·h

---

Assay: Mouse gastrointestinal tissue pharmacokinetics
Format: in vivo, mice
Details: mouse, jejunum, po, Jejunum, BKI 1318 alone; read-out: Tmax
observedProperty: Tmax

Item: CCOc1ccc2cc(-c3nn(CC4CCNCC4)c4ncnc(N)c34)ccc2n1 [BKI1318] | Tmax: 48 min

---

Assay: Mouse gastrointestinal tissue pharmacokinetics
Format: in vivo, mice
Conditions: mouse, jejunum, po, Jejunum, with elacridar; P≤0.05; read-out: AUC0-12 w/ Elacridar
observedProperty: AUC(0-t) (µM·h)
Answer with a number only, understood to be in µM·h.

Item: CCOc1ccc2cc(-c3nn(CC4CCNCC4)c4ncnc(N)c34)ccc2n1 | AUC(0-t): 558

---

Experiment: Mouse gastrointestinal tissue pharmacokinetics
Assay type: in vivo, mice
Conditions: mouse, duodenum, po, Duodenum, with elacridar; read-out: Cmax w/ Elacridar
observedProperty: Cmax (µM)
Answer with a number only, understood to be in µM.

Item: CCOc1ccc2cc(-c3nn(CC4CCNCC4)c4ncnc(N)c34)ccc2n1 [BKI1318] | Cmax: 110

---

Assay: Mouse gastrointestinal tissue pharmacokinetics
Type: in vivo, mice
Details: mouse, cecum/colon, po, Cecum/Colon, with elacridar; read-out: AUC0-12 w/ Elacridar
observedProperty: AUC(0-t) (µM·h)
Answer with a number only, understood to be in µM·h.

Item: CCOc1ccc2cc(-c3nn(CC4CCNCC4)c4ncnc(N)c34)ccc2n1 | AUC(0-t): 65.5

---

Assay: Mouse gastrointestinal tissue pharmacokinetics
Type: in vivo, mice
Conditions: mouse, ileum, po, Ileum, with elacridar; P≤0.05; read-out: AUC0-12 w/ Elacridar
observedProperty: AUC(0-t)
The reply should consist of the numeric value with the unit placed after it.

Item: CCOc1ccc2cc(-c3nn(CC4CCNCC4)c4ncnc(N)c34)ccc2n1 | AUC(0-t): 1150 µM·h

---

Assay: Mouse oral plasma pharmacokinetics with or without elacridar
Assay type: in vivo, mice
Conditions: mouse, plasma, po, mouse plasma, oral; 1369 60 mg/kg, 1318 50 mg/kg; alone; read-out: AUC0-inf
observedProperty: AUC(0-inf) (µM·h)
Answer with a number only, understood to be in µM·h.

Item: CCOc1ccc2cc(-c3nn(CC4CCN(C)CC4)c4ncnc(N)c34)ccc2n1 | AUC(0-inf): 75.6

Item: CCOc1ccc2cc(-c3nn(CC4CCNCC4)c4ncnc(N)c34)ccc2n1 | AUC(0-inf): 6.6

---

Test: Mouse gastrointestinal tissue pharmacokinetics
Type: in vivo, mice
Details: mouse, cecum/colon, po, Cecum/Colon, with elacridar; read-out: Cmax w/ Elacridar
observedProperty: Cmax (µM)
Answer with a number only, understood to be in µM.

Item: CCOc1ccc2cc(-c3nn(CC4CCNCC4)c4ncnc(N)c34)ccc2n1 | Cmax: 8.2

---

Assay: Mouse gastrointestinal tissue pharmacokinetics
Assay type: in vivo, mice
Conditions: mouse, jejunum, oral, elacridar in Jejunum; read-out: Observed Cmax
observedProperty: Cmax (µM)
Answer with a number only, understood to be in µM.

Item: COc1cc2c(cc1OC)CN(CCc1ccc(NC(=O)c3cccc4c(=O)c5cccc(OC)c5[nH]c34)cc1)CC2 [elacridar, reference compound] | Cmax: 32.6

---

Assay: Mouse oral plasma pharmacokinetics with or without elacridar
Format: in vivo, mice
Settings: mouse, plasma, po, mouse plasma, oral; 1369 60 mg/kg, 1318 50 mg/kg; alone; read-out: Cmax
Kindly state Cmax for each of the entries shown.
Answer with a number only, understood to be in nM.

Item: CCOc1ccc2cc(-c3nn(CC4CCN(C)CC4)c4ncnc(N)c34)ccc2n1 [BKI1369] | Cmax: 4200

Item: CCOc1ccc2cc(-c3nn(CC4CCNCC4)c4ncnc(N)c34)ccc2n1 [BKI1318] | Cmax: 1000
